Measured inhibition at 50 µM of individual entries
biological target: p34^cdc2 (Homo sapiens, UniProt P06493); assay: Peptide inhibition of p34^cdc2 immune complex histone H1 kinase activity; assay type: biochemical; set-up: endogenous in cells; host or cells: HeLa; details: 50 μM peptide, p34^cdc2 immune complex from HeLa cells, histone H1 substrate; read-out: p34^cdc2 Inhib. (%)
Sequence (P06493 whole entry): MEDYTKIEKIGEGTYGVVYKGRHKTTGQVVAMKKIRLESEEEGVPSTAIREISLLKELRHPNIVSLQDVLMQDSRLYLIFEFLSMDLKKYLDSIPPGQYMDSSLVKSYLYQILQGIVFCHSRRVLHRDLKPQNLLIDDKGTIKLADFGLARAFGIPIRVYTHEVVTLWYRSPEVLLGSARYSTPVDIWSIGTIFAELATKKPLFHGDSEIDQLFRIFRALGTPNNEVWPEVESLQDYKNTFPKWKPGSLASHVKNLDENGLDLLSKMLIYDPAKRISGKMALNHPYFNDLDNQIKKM
Where no end group is shown, it is not given here.

{"substance": "LCAYYIMAK [715FY, LCAYYIMAK]", "units-text": "%", "inhibition at 50 µM": 20}
{"substance": "RKRCAFYI [PKG-NC5mer, RKRCAFYI]", "units-text": "%", "inhibition at 50 µM": 0}
{"substance": "LCAFFIMAK [716YF, LCAFFIMAK]", "units-text": "%", "inhibition at 50 µM": 80}
{"substance": "KDRHLDQLLLCAFYIMAK [18mer, KDRHLDQLLLCAFYIMAK]", "units-text": "%", "inhibition at 50 µM": 80}
{"substance": "LCAFYI [C6mer, LCAFYI]", "units-text": "%", "inhibition at 50 µM": 79}
{"substance": "LCAAYIMAK [715FA, LCAAYIMAK]", "units-text": "%", "inhibition at 50 µM": 0}
{"substance": "AFYIMAK [N7mer, AFYIMAK]", "units-text": "%", "inhibition at 50 µM": 0}
{"substance": "LFAFYIMAK [713CF, LFAFYIMAK]", "units-text": "%", "inhibition at 50 µM": 60}
{"substance": "PKKKRKVCAFYI [SV-NC5mer, PKKKRKVCAFYI]", "units-text": "%", "inhibition at 50 µM": 0}
{"substance": "LCAKYIMAK [715FK, LCAKYIMAK]", "units-text": "%", "inhibition at 50 µM": 0}
{"substance": "LCAFYIM [C7mer, LCAFYIM]", "units-text": "%", "inhibition at 50 µM": 70}
{"substance": "SPKKGCAFYI [SPKK-NC5mer, SPKKGCAFYI]", "units-text": "%", "inhibition at 50 µM": 0}
{"substance": "LCEFYIMAK [714AE, LCEFYIMAK]", "units-text": "%", "inhibition at 50 µM": 0}
{"substance": "DLMKDRHLDQLLLCAFYIMAK [21mer]", "units-text": "%", "inhibition at 50 µM": 70}
{"substance": "LDQLLLCAFYIMAK [14mer, LDQLLLCAFYIMAK]", "units-text": "%", "inhibition at 50 µM": 80}
{"substance": "LCAFYKMAK [717IK, LCAFYKMAK]", "units-text": "%", "inhibition at 50 µM": 0}
{"substance": "CAFYIGSPKK [NC5mer-SPKK, CAFYIGSPKK]", "units-text": "%", "inhibition at 50 µM": 80}
{"substance": "LCAFYIMAK [9mer, LCAFYIMAK]", "units-text": "%", "inhibition at 50 µM": 90}
{"substance": "RRCAFYI [RR-NC5mer, RRCAFYI]", "units-text": "%", "inhibition at 50 µM": 0}
{"substance": "LCAFAIMAK [716YA, LCAFAIMAK]", "units-text": "%", "inhibition at 50 µM": 0}
{"substance": "LCAFYIMQK [719AQ, LCAFYIMQK]", "units-text": "%", "inhibition at 50 µM": 75}
